experiment: Plasma concentrations in rats designated for pharmacokinetic analysis; format: in vivo; details: rat, po, 20 mg/kg
OUTCOME MEASURE: concentration at 60 min (ng/mL)
State just the number; it will be interpreted in ng/mL.

Would you kindly share the measured concentration at 60 min for C[C@@]1(O)CC[C@H]2[C@H](CC[C@@H]3[C@@H]2CC[C@]2(C)[C@@H](C(=O)Cn4cc(C#N)cn4)CC[C@@H]32)C1 [zuranolone] ?
1470

* * *

molecular target: human recombinant α1β3γ2 GABAA receptor (Homo sapiens, UniProt P14867+P28472); assay: IonWorks Barracuda patch clamp, α1β3γ2 in HEK cells
Sequence (P14867 28-456): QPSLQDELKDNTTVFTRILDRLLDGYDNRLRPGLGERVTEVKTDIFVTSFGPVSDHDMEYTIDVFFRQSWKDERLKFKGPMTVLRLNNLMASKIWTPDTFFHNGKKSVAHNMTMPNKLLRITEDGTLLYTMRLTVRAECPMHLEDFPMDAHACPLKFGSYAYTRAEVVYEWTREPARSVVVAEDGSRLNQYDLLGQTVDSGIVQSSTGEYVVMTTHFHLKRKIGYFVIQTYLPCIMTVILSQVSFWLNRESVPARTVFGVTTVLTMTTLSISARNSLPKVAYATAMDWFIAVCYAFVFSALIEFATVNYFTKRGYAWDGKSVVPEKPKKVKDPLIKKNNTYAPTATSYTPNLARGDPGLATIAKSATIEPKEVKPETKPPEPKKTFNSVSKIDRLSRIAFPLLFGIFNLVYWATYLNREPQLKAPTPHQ
Sequence (P28472 26-473): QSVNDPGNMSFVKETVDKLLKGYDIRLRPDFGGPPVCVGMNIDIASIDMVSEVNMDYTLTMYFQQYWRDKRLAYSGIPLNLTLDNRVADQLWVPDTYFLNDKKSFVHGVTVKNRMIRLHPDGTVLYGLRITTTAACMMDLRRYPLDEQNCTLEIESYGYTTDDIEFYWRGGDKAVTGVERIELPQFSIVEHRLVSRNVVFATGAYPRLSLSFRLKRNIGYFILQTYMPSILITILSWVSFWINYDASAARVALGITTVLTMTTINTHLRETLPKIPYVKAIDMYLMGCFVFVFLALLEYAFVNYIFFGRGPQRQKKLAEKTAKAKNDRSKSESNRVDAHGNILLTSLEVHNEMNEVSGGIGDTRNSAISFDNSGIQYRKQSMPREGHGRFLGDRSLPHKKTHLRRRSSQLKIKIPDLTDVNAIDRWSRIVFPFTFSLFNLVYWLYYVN
Sequence (P18507 40-475 partner): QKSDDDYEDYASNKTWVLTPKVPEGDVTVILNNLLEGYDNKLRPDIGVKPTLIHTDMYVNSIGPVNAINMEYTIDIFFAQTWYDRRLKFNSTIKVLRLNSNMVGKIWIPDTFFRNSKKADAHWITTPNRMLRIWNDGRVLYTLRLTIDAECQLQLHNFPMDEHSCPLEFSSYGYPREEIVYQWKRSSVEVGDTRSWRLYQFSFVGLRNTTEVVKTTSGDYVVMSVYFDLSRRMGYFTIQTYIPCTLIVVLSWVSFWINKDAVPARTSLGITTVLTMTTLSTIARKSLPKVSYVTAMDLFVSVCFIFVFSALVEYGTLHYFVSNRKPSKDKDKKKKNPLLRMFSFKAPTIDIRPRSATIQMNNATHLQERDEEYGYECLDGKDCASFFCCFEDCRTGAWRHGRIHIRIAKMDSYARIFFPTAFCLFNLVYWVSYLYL
OUTCOME MEASURE: EC50 (nM)
State just the number; it will be interpreted in nM.

Would you kindly share the measured EC50 for C[C@@]1(O)CC[C@H]2[C@H](CC[C@@H]3[C@@H]2CC[C@]2(C)[C@@H](C(=O)Cn4cc(C#N)cn4)CC[C@@H]32)C1 [zuranolone] ?
390

Source of measurements: paper PMC8265595
